System name: HER2 on the surface of N87 gastric cancer cells (human, UniProt P04626 23-1255)
Protocol description: cell-based or functional assay
Assay endpoint: % cell viability (AL1) (%)
Answer with a number only, understood to be in %.

Entry 35WYK-9 source scFv (scFv) DIQMTQSPSSLSASVGDRVTITCKSNQNLLLSNGRTFLHWYQQKPGKAPKLLIFDVSNLYSGAPSRFSGSGSGTDFTLTISSLQPDDFATYYCSQTSRFPWTFGQGTKVEIKREVQLVESGGGLVQPGGSLRLSCKASGYTFSHWGMHWVRQAPGKGLEWVAGIYPYFGNTYYADSVKGRFTISADTSKNTAYLQMNSLRAEDTAVYYCARGLLDYWGQGTLVTVSSASAAA — recorded % cell viability (AL1) = 84.7
